targetSystem: vanilloid receptor 1 (VR1/TRPV1 receptor) (Homo sapiens)
Construct: expressed in transfected cells; host or cells: CHO K1
Sequence (Q8NER1 whole entry): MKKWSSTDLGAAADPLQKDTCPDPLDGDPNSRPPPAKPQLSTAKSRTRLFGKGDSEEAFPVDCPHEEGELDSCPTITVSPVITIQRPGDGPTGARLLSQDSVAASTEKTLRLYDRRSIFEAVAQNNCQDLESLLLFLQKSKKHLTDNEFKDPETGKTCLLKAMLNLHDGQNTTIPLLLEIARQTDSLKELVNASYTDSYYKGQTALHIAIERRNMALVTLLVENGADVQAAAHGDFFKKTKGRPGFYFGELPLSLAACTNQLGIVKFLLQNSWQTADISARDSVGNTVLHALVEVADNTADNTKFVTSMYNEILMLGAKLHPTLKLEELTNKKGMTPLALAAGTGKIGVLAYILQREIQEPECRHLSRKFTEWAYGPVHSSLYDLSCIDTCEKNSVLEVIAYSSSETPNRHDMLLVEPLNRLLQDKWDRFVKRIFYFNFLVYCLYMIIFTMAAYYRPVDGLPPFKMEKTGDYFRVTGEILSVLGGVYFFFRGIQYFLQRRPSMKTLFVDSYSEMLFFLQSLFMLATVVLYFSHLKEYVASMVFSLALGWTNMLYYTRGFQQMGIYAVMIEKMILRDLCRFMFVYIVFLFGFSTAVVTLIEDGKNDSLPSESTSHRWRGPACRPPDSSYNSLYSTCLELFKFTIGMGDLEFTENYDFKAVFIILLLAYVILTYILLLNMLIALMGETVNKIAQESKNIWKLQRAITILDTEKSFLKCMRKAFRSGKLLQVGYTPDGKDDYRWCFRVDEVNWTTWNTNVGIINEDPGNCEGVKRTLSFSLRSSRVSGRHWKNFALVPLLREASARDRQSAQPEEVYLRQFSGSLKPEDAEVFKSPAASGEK
testDescription: Functional testing on the vanilloid receptor 1 (FLIPR Ca2+ influx assay, capsaicin stimulation)
Format: cell-based
assaySetup: functional (f), capsaicin (CAP) 100 nM; Ki from IC50 by Cheng-Prusoff equation; "ne" = did not show any effect in this assay
Experimental: […] In the process, the Ca^2+ influx is quantified in the FLIPR assay with the aid of a Ca^2+-sensitive dye (type Fluo-4, Molecular Probes Europe BV, Leiden, the Netherlands) in a fluorescent imaging plate reader (FLIPR, Molecular Devices, Sunnyvale, USA), as described hereinafter. […] The FLIPR protocol consists of 2 substance additions. […] After 5 min incubation, 100 nM of capsaicin are applied and the Ca^2+ influx is also determined. […]
quantityMeasured: Ki (nM)

a = CC1CCN(c2nc(C(F)(F)F)ccc2CNC(=O)NC2CCCc3ccc(O)cc32)CC1 (centres unmarked) [compound 4]
b = CC1CCN(c2nc(C(F)(F)F)ccc2CNC(=O)C(C)C2CCCc3ccc(O)cc32)CC1 (centres unmarked) [comp. no. 6]
Query: Name the one with the greater Ki value, either a or b as given. # reply format: chosen label
Reply: b
(b: 28.6 nM, a: 6.1 nM)
